system: Escherichia coli IAI1; experiment: fold change of Putrescine concentration vs plate DMSO controls (fold change (ratio)); higher = more amine produced, active = hit call of the paper (significant change in both replicates, either direction); conditions: incubation time: 27 h, anaerobic, 37 °C
Where a name gives a salt, the structure may show the parent alone.
The reader will find reported fold change of Putrescine concentration values listed item by item below.
Give the figure only, with no unit attached.

Solved entries (count: 5):
>  <compound>
CC(C)[C@H](N)C(=O)OCC(CO)OCn1cnc2c(=O)nc(N)[nH]c21 (some centres not stated) [Valganciclovir hydrochloride] (20 µM)

>  <fold change of Putrescine concentration>
1.01

$$$$
>  <compound>
Cc1cc(CC(=O)O)n(C)c1C(=O)c1ccc(Cl)cc1 [Zomepirac sodium salt] (20 µM)

>  <fold change of Putrescine concentration>
1.04

$$$$
>  <compound>
O=C(NCC(O)CO)c1c(I)c(C(=O)NCC(O)CO)c(I)c(N(CCO)C(=O)CO)c1I (configuration not stated) [Ioversol] (20 µM)

>  <fold change of Putrescine concentration>
0.923

$$$$
>  <compound>
O=c1[nH]cnc2c1ncn2[C@H]1CC[C@@H](CO)O1 [Didanosine] (20 µM)

>  <fold change of Putrescine concentration>
1.14

$$$$
>  <compound>
CC(=O)N(O)CCCCCNC(=O)CCC(=O)N(O)CCCCCNC(=O)CCC(=O)N(O)CCCCCN [Deferoxamine mesylate] (20 µM)

>  <fold change of Putrescine concentration>
0.952

$$$$

// switching to the query compound
Suppose we examine the compound CC(C[N+](C)(C)C)OC(N)=O (configuration not stated) [Bethanechol chloride] (20 µM) ; what fold change of Putrescine concentration value has been reported?
1.03

---

The reader will find reported growth values listed item by item below.
tested on: Escherichia coli IAI1; experiment: growth (OD595) fold change vs plate DMSO controls (fold change (ratio)); higher = more growth; details: incubation time: 27 h, anaerobic, 37 °C
Counter-ions that a name gives are not always drawn.
Give the figure only, with no unit attached.

Solved entries (count: 6):
>  <compound>
O=C(O)Cc1cc(I)c(Oc2ccc(O)c(I)c2)c(I)c1 [Tiratricol] (20 µM)

>  <growth>
1.07

$$$$
>  <compound>
CC/C=C(\C(=O)N[C@@H]1C(=O)N2C(C(=O)OCOC(=O)C(C)(C)C)=C(COC(N)=O)CS[C@H]12)c1csc(N)n1 [Cefcapene pivoxil hydrochloride monohydrate] (20 µM)

>  <growth>
0.786

$$$$
>  <compound>
Cc1cnc(NC(=O)C2=C(O)c3ccccc3S(=O)(=O)N2C)s1 [Meloxicam] (20 µM)

>  <growth>
0.997

$$$$
>  <compound>
Nc1nc(=O)n([C@@H]2CS[C@H](CO)O2)cc1F [(-) Emtricitabine] (20 µM)

>  <growth>
0.995

$$$$
>  <compound>
NS(=O)(=O)c1cc(C(=O)NN2C[C@@H]3[C@H]4CC[C@H](C4)[C@@H]3C2)ccc1Cl [Tripamide] (20 µM)

>  <growth>
1.01

$$$$
>  <compound>
Cc1onc(-c2ccccc2Cl)c1C(=O)N[C@@H]1C(=O)N2[C@@H]1SC(C)(C)[C@@H]2C(=O)O [Cloxacillin sodium salt] (20 µM)

>  <growth>
1.02

$$$$

Suppose we examine the compound N[C@@H](CSCCCO)C(=O)O [Fudosteine] (20 µM) ; what growth value has been reported?
1.05

Suppose we examine the compound CCOc1ccc2nc3cc(N)ccc3c(N)c2c1 [Ethacridine lactate] (20 µM) ; what growth value has been reported?
0.981

Suppose we examine the compound CC(=O)Oc1ccccc1C(=O)O [Acetylsalicylic acid] (20 µM) ; what growth value has been reported?
0.986

Suppose we examine the compound Cn1ccnc1S [Methimazole] (20 µM) ; what growth value has been reported?
1.11

Suppose we examine the compound O=C(Oc1cccc2cccnc12)c1ccccc1 [Benzoxiquine] (20 µM) ; what growth value has been reported?
0.939

Suppose we examine the compound O=C1CN2Cc3c(ccc(Cl)c3Cl)N=C2N1 [Anagrelide] (20 µM) ; what growth value has been reported?
1.11

Suppose we examine the compound Cc1c(Nc2ncccc2C(=O)O)cccc1C(F)(F)F [Flunixin meglumine] (20 µM) ; what growth value has been reported?
1.04

Suppose we examine the compound COc1ccc([C@@H]2CC(=O)c3c(O)cc(O[C@@H]4O[C@H](CO[C@@H]5O[C@@H](C)[C@H](O)[C@@H](O)[C@H]5O)[C@@H](O)[C@H](O)[C@H]4O)cc3O2)cc1O [Hesperidin] (20 µM) ; what growth value has been reported?
1.05

Suppose we examine the compound CC(=O)NC[C@H]1CN(c2ccc(N3CCOCC3)c(F)c2)C(=O)O1 [Linezolid] (20 µM) ; what growth value has been reported?
0.788

Suppose we examine the compound Cc1cc(O)c(C(=O)N[C@@H](C(=O)N[C@@H]2C(=O)N3C(C(=O)O)=C(CSc4nnnn4C)CS[C@H]23)c2ccc(O)cc2)cn1 [Cefpiramide] (20 µM) ; what growth value has been reported?
0.0131

---

The reader will find reported fold change of Histamine concentration values listed item by item below.
tested on: Klebsiella aerogenes DSM 30053; assay: fold change of Histamine concentration vs plate DMSO controls (fold change (ratio)); higher = more amine produced, active = hit call of the paper (significant change in both replicates, either direction); details: incubation time: 27 h, anaerobic, 37 °C
Give the figure only, with no unit attached.

Solved entries (count: 3):
>  <compound>
Cn1cnc2c1c(=O)[nH]c(=O)n2C [Theobromine] (20 µM)

>  <tested.system>
Klebsiella aerogenes DSM 30053

>  <fold change of Histamine concentration>
0.986

$$$$
>  <compound>
CCc1oc2ccccc2c1C(=O)c1ccc(O)cc1 [Benzarone] (20 µM)

>  <tested.system>
Klebsiella aerogenes DSM 30053

>  <fold change of Histamine concentration>
0.967

$$$$
>  <compound>
Cc1ccc(S(=O)(=O)NC(=O)NN2CC3CCCC3C2)cc1 (centres undefined) [Gliclazide] (20 µM)

>  <tested.system>
Klebsiella aerogenes DSM 30053

>  <fold change of Histamine concentration>
1.04

$$$$

// switching to the query compound
Find fold change of Histamine concentration (Klebsiella aerogenes DSM 30053) for the entry CN(C)[C@@H]1C(=O)C(C(=O)NCNCCCC[C@H](N)C(=O)O)=C(O)[C@@]2(O)C(=O)C3=C(O)c4c(O)cccc4[C@@](C)(O)[C@H]3C[C@@H]12 [Lymecycline] (20 µM)
1.05

---

test system: Klebsiella aerogenes DSM 30053; assay: fold change of Putrescine concentration vs plate DMSO controls (fold change (ratio)); higher = more amine produced, active = hit call of the paper (significant change in both replicates, either direction); conditions: incubation time: 27 h, anaerobic, 37 °C
Structures can show the parent of a compound that is named as a salt.
The reader will find reported fold change of Putrescine concentration values listed item by item below.
Give the figure only, with no unit attached.

Solved entries (count: 5):
>  <compound>
Nc1ncn(C2OC(CO)C(O)C2O)c(=O)n1 (configuration not stated) [Azacytidine-5] (20 µM)

>  <fold change of Putrescine concentration>
1.01

$$$$
>  <compound>
CC1(C)S[C@@H]2[C@H](NC(=O)C(C(=O)O)c3ccccc3)C(=O)N2[C@H]1C(=O)O (some centres not stated) [Carbenicillin disodium salt] (20 µM)

>  <fold change of Putrescine concentration>
0.986

$$$$
>  <compound>
O=C(O)CCC(=O)Nc1ccc(S(=O)(=O)Nc2nccs2)cc1 [Succinylsulfathiazole] (20 µM)

>  <fold change of Putrescine concentration>
0.997

$$$$
>  <compound>
Cc1cn(-c2cc(NC(=O)c3ccc(C)c(Nc4nccc(-c5cccnc5)n4)c3)cc(C(F)(F)F)c2)cn1 [Nilotinib] (20 µM)

>  <fold change of Putrescine concentration>
1.01

$$$$
>  <compound>
COC(=O)[C@H](Cc1ccccc1)NC(=O)[C@@H](N)CC(=O)O [Aspartame] (50 µM)

>  <fold change of Putrescine concentration>
1.01

$$$$

Suppose we examine the compound COCCc1ccc(OCC(O)CNC(C)C)cc1 (stereo not drawn) [Metoprolol-(+)-tartrate salt] (20 µM) ; what fold change of Putrescine concentration value has been reported?
0.955

Suppose we examine the compound Cn1cc([S+](C)[O-])c(=O)c2ccc(F)cc21 (configuration not stated) [Flosequinan] (20 µM) ; what fold change of Putrescine concentration value has been reported?
1.02

Suppose we examine the compound CN(C)CCN(Cc1ccccc1)c1ccccn1 [Tripelennamine hydrochloride] (20 µM) ; what fold change of Putrescine concentration value has been reported?
1.01

Suppose we examine the compound Nc1ccc(/N=N/c2ccccc2)c(N)n1 [Phenazopyridine hydrochloride] (20 µM) ; what fold change of Putrescine concentration value has been reported?
0.986

Suppose we examine the compound Cc1cn([C@H]2C=C[C@@H](CO)O2)c(=O)[nH]c1=O [Stavudine] (20 µM) ; what fold change of Putrescine concentration value has been reported?
1.04

Suppose we examine the compound CCCOc1ccc(C(=O)OCCN(CC)CC)cc1N [Proparacaine hydrochloride] (20 µM) ; what fold change of Putrescine concentration value has been reported?
0.98

Suppose we examine the compound Nc1ccc2cc3ccc(N)cc3nc2c1 [Proflavine hemisulfate] (20 µM) ; what fold change of Putrescine concentration value has been reported?
0.963

Suppose we examine the compound O=C(O)c1cn(C2CC2)c2cc(N3CCNCC3)c(F)cc2c1=O [Ciprofloxacin hydrochloride monohydrate] (20 µM) ; what fold change of Putrescine concentration value has been reported?
0.573

Suppose we examine the compound CN(C)CCCN1c2ccccc2Sc2ccccc21 [Promazine hydrochloride] (20 µM) ; what fold change of Putrescine concentration value has been reported?
0.995
